Conditions: in 2-butoxyethanol, 323.15 K

- molecule-smiles: "CN(C)NC(=O)CCC(=O)O"
  solubility (mole fraction): 0.00278

----------
Details: in isopropanol, 288.15 K
quantity: solubility (mole fraction)

- molecule-smiles: "CN(C)NC(=O)CCC(=O)O"
  measured-result: 0.00048

----------
Conditions: in ethanol, 318.15 K
quantity: solubility (mole fraction)

- molecule-smiles: "CN(C)NC(=O)CCC(=O)O"
  quantity: "solubility (mole fraction)"
  measured-result: 0.0128

----------
Details: in 2-propoxyethanol, 298.15 K
quantity: solubility (mole fraction)

- molecule-smiles: "CN(C)NC(=O)CCC(=O)O"
  measured-result: 0.00108

----------
Conditions: in 2-methoxyethanol, 293.15 K

- molecule-smiles: "CN(C)NC(=O)CCC(=O)O"
  solubility (mole fraction): 0.00634

----------
Details: in NMP, 298.15 K

- molecule-smiles: "CN(C)NC(=O)CCC(=O)O"
  solubility (mole fraction): 0.0552

----------
Settings: in 2-ethoxyethanol, 323.15 K

- molecule-smiles: "CN(C)NC(=O)CCC(=O)O"
  solubility (mole fraction): 0.012

----------
Settings: in acetonitrile, 318.15 K
quantity: solubility (mole fraction)

- molecule-smiles: "CN(C)NC(=O)CCC(=O)O"
  measured-result: 0.00109

----------
Conditions: in n-propanol, 303.15 K

- molecule-smiles: "CN(C)NC(=O)CCC(=O)O"
  solubility (mole fraction): 0.00285

----------
Conditions: in n-pentanol, 318.15 K

- molecule-smiles: "CN(C)NC(=O)CCC(=O)O"
  solubility (mole fraction): 0.00109

----------
Settings: in NMP, 283.15 K
quantity: solubility (mole fraction)

- molecule-smiles: "CN(C)NC(=O)CCC(=O)O"
  quantity: "solubility (mole fraction)"
  measured-result: 0.037

----------
Conditions: in DMF, 313.15 K

- molecule-smiles: "CN(C)NC(=O)CCC(=O)O"
  solubility (mole fraction): 0.0503

----------
Conditions: in ethanol, 323.15 K

- molecule-smiles: "CN(C)NC(=O)CCC(=O)O"
  solubility (mole fraction): 0.0164

----------
Settings: in NMP, 303.15 K
quantity: solubility (mole fraction)

- molecule-smiles: "CN(C)NC(=O)CCC(=O)O"
  measured-result: 0.063

----------
Conditions: in 2-butoxyethanol, 303.15 K

- molecule-smiles: "CN(C)NC(=O)CCC(=O)O"
  solubility (mole fraction): 0.000905

----------
Conditions: in n-pentanol, 298.15 K

- molecule-smiles: "CN(C)NC(=O)CCC(=O)O"
  solubility (mole fraction): 0.000344

----------
Conditions: in NMP, 293.15 K

- molecule-smiles: "CN(C)NC(=O)CCC(=O)O"
  solubility (mole fraction): 0.0481

----------
Details: in methanol, 318.15 K

- molecule-smiles: "CN(C)NC(=O)CCC(=O)O"
  solubility (mole fraction): 0.026

----------
Conditions: in DMF, 318.15 K
quantity: solubility (mole fraction)

- molecule-smiles: "CN(C)NC(=O)CCC(=O)O"
  measured-result: 0.0568

----------
Settings: in acetonitrile, 293.15 K

- molecule-smiles: "CN(C)NC(=O)CCC(=O)O"
  solubility (mole fraction): 0.000296

----------
Conditions: in n-pentanol, 313.15 K

- molecule-smiles: "CN(C)NC(=O)CCC(=O)O"
  solubility (mole fraction): 0.000821
